Test system: U-937
Assay: In vitro inhibitory concentration required to inhibit the growth of U937 cells was determined by mitotic block reversibility assay
Type: functional
Settings: Homo sapiens
readout.kind: log10(IC99) (log10 of the value in µM)
# values: log10(IC99), units µM

Past entries and their recorded results:
# compound, log10(IC99)
rows = [
    ("C=C1C[C@@H]2CC[C@@]34C[C@@H]5O[C@@H]6C(O[C@H]7CC[C@H](CC(=O)O[C@@H]8[C@@H](OC)[C@@H](O)[C@H](CC(O)CO)O[C@H]8C[C@H]8O[C@@H](CC[C@@H]1O2)C[C@@H](C)C8=C)O[C@@H]7[C@@H]6O3)[C@H]5O4 (stereo partly specified)", -1.28),
    ("C=C1C2C[C@@H]3O[C@H](C[C@@H](O)CO)[C@H](OC)[C@H]3OC(=O)C[C@H]3CC[C@@H]4OC5[C@H]6O[C@H]7C[C@](CC[C@H]8CC(=C)[C@H](CC[C@@H](C[C@H]1C)O2)O8)(OC6[C@H]4O3)O[C@H]57", -1.70),
    ("C=C1C[C@@H]2CC[C@@]34C[C@@H]5O[C@@H]6C(O[C@H]7CC[C@H](CC(=O)O[C@@H]8[C@@H](C)[C@H](O)[C@H](CCO)O[C@H]8C[C@H]8O[C@@H](CC[C@@H]1O2)C[C@@H](C)C8=C)O[C@@H]7[C@@H]6O3)[C@H]5O4", -0.77),
]

According to the records, this compound C=C1C[C@@H]2CC[C@@]34C[C@@H]5O[C@@H]6C(O[C@H]7CC[C@H](CC(=O)O[C@@H]8[C@@H](C)[C@@H]9O[C@H](CO)[C@@H](O)C[C@@H]9O[C@H]8C[C@H]8O[C@@H](CC[C@@H]1O2)C[C@@H](C)C8=C)O[C@@H]7[C@@H]6O3)[C@H]5O4 displays log10(IC99) of -0.66

According to the records, this compound C=C1C[C@@H]2CC[C@@]34C[C@@H]5O[C@@H]6C(O[C@H]7CC[C@H](CC(=O)O[C@@H]8[C@@H](OC)[C@H](C[C@@H](O)CO)O[C@H]8C[C@H]8O[C@@H](CC[C@@H]1O2)C[C@@H](C)C8=C)O[C@@H]7[C@@H]6O3)[C@H]5O4 displays log10(IC99) of -1.52

According to the records, this compound C=C1C[C@@H]2CC[C@@]34C[C@@H]5O[C@@H]6C(O[C@H]7CC[C@H](CC(=O)O[C@@H]8[C@@H](OC)[C@H](O)[C@H](CO)O[C@H]8C[C@H]8O[C@@H](CC[C@@H]1O2)C[C@@H](C)C8=C)O[C@@H]7[C@@H]6O3)[C@H]5O4 displays log10(IC99) of -0.52

====

Tested on: U-937
Experiment: In vitro inhibitory concentration required to inhibit the growth of U937 cells was determined by mitotic block reversibility assay
Format: functional
Details: Homo sapiens
# maps each entry to its IC99

# molecule, target.of.assay, data.value
data = [
    ("C=C1C[C@@H]2CC[C@@]34C[C@@H]5O[C@@H]6C(O[C@H]7CC[C@H](CC(=O)O[C@@H]8[C@@H](OC)[C@H](C[C@@H](O)CC(O)CO)O[C@H]8C[C@H]8O[C@@H](CC[C@@H]1O2)C[C@@H](C)C8=C)O[C@@H]7[C@@H]6O3)[C@H]5O4 (stereo partly drawn)", "U-937", "0.03 µM"),
    ("C=C1C[C@@H]2CC[C@@]34C[C@@H]5O[C@@H]6C(O[C@H]7CC[C@H](CC(=O)O[C@@H]8[C@@H](OC)[C@@H](C[C@H](O)CO)O[C@H]8C[C@H]8O[C@@H](CC[C@@H]1O2)C[C@@H](C)C8=C)O[C@@H]7[C@@H]6O3)[C@H]5O4", "U-937", "0.015 µM"),
]

According to the records, this molecule C=C1C[C@@H]2CC[C@@]34C[C@@H]5O[C@@H]6C(O[C@H]7CC[C@H](CC(=O)O[C@@H]8[C@@H](OC)[C@@H](O)[C@@H](CC(O)CO)O[C@H]8C[C@H]8O[C@@H](CC[C@@H]1O2)C[C@@H](C)C8=C)O[C@@H]7[C@@H]6O3)[C@H]5O4 (stereo partly drawn) displays IC99 of 0.065 µM

====

# maps each entry to its IC99
Tested on: U-937
Assay: In vitro inhibitory concentration required to inhibit the growth of U937 cells was determined by mitotic block reversibility assay
Type: functional
Conditions: Homo sapiens
Numeric only. Scale: µM

# smiles.representation, result.unit, IC99
rows = [
    ("C=C1C[C@@H]2CC[C@@]34C[C@@H]5O[C@@H]6C(O[C@H]7CC[C@H](CC(=O)O[C@@H]8[C@@H](OC)[C@H](CCC(=O)C(F)(F)F)O[C@H]8C[C@H]8O[C@@H](CC[C@@H]1O2)C[C@@H](C)C8=C)O[C@@H]7[C@@H]6O3)[C@H]5O4", "µM", 0.03),
]

Read the next record carefully.
According to the records, this molecule C=C1C2C[C@@H]3O[C@@H](C[C@H](O)CO)[C@H](OC)[C@H]3OC(=O)C[C@H]3CC[C@@H]4OC5[C@H]6O[C@H]7C[C@](CC[C@H]8CC(=C)[C@H](CC[C@@H](C[C@H]1C)O2)O8)(OC6[C@H]4O3)O[C@H]57 displays IC99 of 0.1

====

System: U-937
Experiment: In vitro inhibitory concentration required to inhibit the growth of U937 cells was determined by mitotic block reversibility assay
Assay type: functional
Conditions: Homo sapiens
# maps each entry to its IC99
Numeric only. Scale: µM

# smiles.representation, IC99 (µM)
data = [
    ("C=C1C[C@@H]2CC[C@@]34C[C@@H]5O[C@@H]6C(O[C@H]7CC[C@H](CC(=O)O[C@@H]8[C@@H](OC)[C@H](CO)O[C@H]8C[C@H]8O[C@@H](CC[C@@H]1O2)C[C@@H](C)C8=C)O[C@@H]7[C@@H]6O3)[C@H]5O4", 0.1),
]

Entry C=C1C[C@@H]2CC[C@@]34C[C@@H]5O[C@@H]6C(O[C@H]7CC[C@H](CC(=O)O[C@@H]8[C@@H](OC)[C@H](CCO)O[C@H]8C[C@H]8O[C@@H](CC[C@@H]1O2)C[C@@H](C)C8=C)O[C@@H]7[C@@H]6O3)[C@H]5O4 , tested on U-937, has a reported IC99 of 0.1

====

# maps each entry to its IC99
System: U-937
Test: In vitro inhibitory concentration required to inhibit the growth of U937 cells was determined by mitotic block reversibility assay
Format: functional
Conditions: Homo sapiens
Numeric only. Scale: µM

Past entries and their recorded results:
# compound, result.unit, IC99
rows = [
    ("C=C1C[C@@H]2CC[C@@]34C[C@@H]5O[C@@H]6C(O[C@H]7CC[C@H](CC(=O)O[C@@H]8[C@@H](OC)[C@@H](O)[C@H](CO)O[C@H]8C[C@H]8O[C@@H](CC[C@@H]1O2)C[C@@H](C)C8=C)O[C@@H]7[C@@H]6O3)[C@H]5O4", "µM", 0.065),
    ("C=C1C[C@@H]2CC[C@@]34C[C@@H]5O[C@@H]6C(O[C@H]7CC[C@H](CC(=O)O[C@@H]8[C@@H](OC)[C@@H](O)[C@H](CCO)O[C@H]8C[C@H]8O[C@@H](CC[C@@H]1O2)C[C@@H](C)C8=C)O[C@@H]7[C@@H]6O3)[C@H]5O4", "µM", 0.1),
    ("C=C1C[C@@H]2CC[C@@]34C[C@@H]5O[C@@H]6C(O[C@H]7CC[C@H](CC(=O)O[C@@H]8[C@@H](OC)[C@H](O)[C@H](CCO)O[C@H]8C[C@H]8O[C@@H](CC[C@@H]1O2)C[C@@H](C)C8=C)O[C@@H]7[C@@H]6O3)[C@H]5O4", "µM", 0.3),
]

Read the next record carefully.
According to the records, this compound C=C1C[C@@H]2CC[C@@]34C[C@@H]5O[C@@H]6C(O[C@H]7CC[C@H](CC(=O)O[C@H]8C(CC9OC(CCC1O2)C[C@@H](C)C9=C)O[C@H]1C[C@H]2O[C@@]9(C[C@@H]%10O[C@]%11(C[C@H](C)[C@@H]%12O[C@H]([C@@H](O)C[C@@H](O)CO)C[C@@H]%12O%11)C[C@H](C)[C@@H]%10O9)C[C@H]2O[C@H]1[C@@H]8C)O[C@@H]7[C@@H]6O3)[C@H]5O4 (stereo partly specified) displays IC99 of 0.025
